Assign Kd to each entry below.
Target: ARHGAP12 SH3 domain (aa 12-74) (Homo sapiens, UniProt Q8IWW6)
Sequence (Q8IWW6 12-74): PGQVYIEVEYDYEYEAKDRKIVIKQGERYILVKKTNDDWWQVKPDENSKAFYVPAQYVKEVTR
Peptide text beside a SMILES is read from it.

Q) Name the reported Kd value associated with the compound CC(C)[C@H](N)C(=O)N1CCC[C@H]1C(=O)N[C@H](C(=O)N1CCC[C@H]1C(=O)N1CCC[C@H]1C(=O)N1CCC[C@H]1C(=O)N[C@H](C(=O)N1CCC[C@H]1C(=O)N1CCC[C@H]1C(=O)N[C@@H](CCCNC(=N)N)C(=O)N[C@@H](CCCNC(=N)N)C(=O)N[C@@H](CCCNC(=N)N)C(=O)O)C(C)C)C(C)C [RP1, reference compound]
A) 16.7 µM

Q) # Kd lookup, item CC(C)[C@H](NC(=O)[C@@H]1CCCN1C(=O)[C@@H]1CCCN1C(=O)[C@H](C)NC(=O)[C@H](CCC(=O)O)NC(=O)[C@H](CS)NC(=O)[C@@H](N)CCCNC(=N)N)C(=O)N1CCC[C@H]1C(=O)N1CCC[C@H]1C(=O)N[C@@H](CCCNC(=N)N)C(=O)N[C@@H](CCCNC(=N)N)C(=O)N[C@@H](CCC(=O)O)C(=O)N[C@@H](CCCNC(=N)N)C(=O)NCC(=O)O [RP2, reference compound] (H-RCEAPPVPPRRERG-OH)
A) 15.5 µM

Q) Query: Kd; subject: CC[C@H](C)[C@H](NC(=O)[C@H](Cc1c[nH]cn1)NC(=O)[C@@H](N)CCC(N)=O)C(=O)N1CCC[C@H]1C(=O)N[C@@H](CCCCN)C(=O)N[C@@H](CC(C)C)C(=O)N1CCC[C@H]1C(=O)N1CCC[C@H]1C(=O)N[C@@H](CCCCN)C(=O)N[C@H](C(=O)N[C@@H](Cc1ccc(O)cc1)C(=O)O)[C@@H](C)O [Peptide P10] (H-QHIPKLPPKTY-OH; N-terminus and C-terminus assumed)
A) > 200 µM
